- system: StAckA (Salmonella typhimurium acetate kinase, AckA) (Salmonella enterica, UniProt P63411)
- Construct: expressed in E. coli; Ni-NTA and gel filtration; homodimer
- Sequence (P63411 whole entry): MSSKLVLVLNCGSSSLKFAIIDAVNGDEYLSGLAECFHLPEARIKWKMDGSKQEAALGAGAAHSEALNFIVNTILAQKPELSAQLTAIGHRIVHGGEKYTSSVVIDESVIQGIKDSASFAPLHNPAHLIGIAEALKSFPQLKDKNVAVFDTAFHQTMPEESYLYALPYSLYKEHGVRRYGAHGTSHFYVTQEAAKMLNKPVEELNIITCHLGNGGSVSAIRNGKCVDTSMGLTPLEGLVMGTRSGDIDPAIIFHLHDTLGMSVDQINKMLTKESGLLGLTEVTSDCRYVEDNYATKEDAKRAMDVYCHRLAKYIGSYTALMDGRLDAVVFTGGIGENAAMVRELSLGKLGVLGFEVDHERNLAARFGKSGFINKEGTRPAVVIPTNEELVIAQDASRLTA
- protocol.description: kinetic assay after […] min preincubation at […] °C with inhibitor
- Type: biochemical
- cond: read-out: kcat/Km(s^-1 mM^-1); saturating cognate ligand; 37 °C
quantity.name: IC50 (mM)

>>> print(df.to_string())
                           compound  quantity_name  experimental_value
0  NCCC(N)C(=O)O (stereo not shown)           IC50                   5

---

- system: StAckA (Salmonella typhimurium acetate kinase, AckA) (Salmonella enterica, UniProt P63411)
- Construct: expressed in E. coli; Ni-NTA and gel filtration; homodimer
- protocol.description: kinetic assay after […] min preincubation at […] °C with inhibitor
- Assay type: biochemical
- cond: read-out: kcat(s^-1)
quantity.name: IC50 (mM)

                     molecule  quantity_name  measurement_units  experimental_value
0  O=C(O)CCC(=O)C(=O)O [α-KG]           IC50                 mM                   7

---

- system: StAckA (Salmonella typhimurium acetate kinase, AckA) (Salmonella enterica, UniProt P63411)
- Construct: expressed in E. coli; Ni-NTA and gel filtration; homodimer
- protocol.description: kinetic assay after […] min preincubation at […] °C with inhibitor
- Assay type: biochemical
- cond: read-out: [I]
pIC50: −log10 of the molar value.
quantity.name: pIC50

>>> df
                         compound                                    system  quantity_name  experimental_value
0                   CCC(=O)C(=O)O  StAckA (Salmonella typhimurium acetate kinase, AckA) (Salmonella enterica, UniProt P63411)          pIC50                2.52
1  O=C(O)C[C@H](O)C(=O)O [Malate]  StAckA (Salmonella typhimurium acetate kinase, AckA) (Salmonella enterica, UniProt P63411)          pIC50                3.00

---

- system: StAckA (Salmonella typhimurium acetate kinase, AckA) (Salmonella enterica)
- Construct: expressed in E. coli; Ni-NTA and gel filtration; homodimer
- protocol.description: kinetic assay after […] min preincubation at […] °C with inhibitor
- Format: biochemical
- cond: read-out: Km
pIC50: −log10 of the molar value.
quantity.name: pIC50

>>> print(df.to_string())
                               compound  experimental_value
0  O=C(O)CC(O)(CC(=O)O)C(=O)O [Citrate]                1.20
